Data provenance: patent US7855288B2

Known IC50 of a selection of compounds
Target: UniProtKB Q16539
Sequence (Q16539 whole entry): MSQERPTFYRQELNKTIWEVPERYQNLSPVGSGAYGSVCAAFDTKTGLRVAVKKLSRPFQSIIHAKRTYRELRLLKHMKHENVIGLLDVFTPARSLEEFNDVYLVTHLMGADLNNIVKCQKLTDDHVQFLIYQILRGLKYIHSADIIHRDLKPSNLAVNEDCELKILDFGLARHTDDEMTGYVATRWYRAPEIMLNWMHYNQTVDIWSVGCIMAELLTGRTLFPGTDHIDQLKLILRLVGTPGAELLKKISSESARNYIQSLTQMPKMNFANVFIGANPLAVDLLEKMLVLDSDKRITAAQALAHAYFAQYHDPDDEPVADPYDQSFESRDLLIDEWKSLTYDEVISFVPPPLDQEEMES

As a guide, the following entries are already answered.
{"Molecule": "CCOC(=O)c1cc2cnnc(Nc3cc(C(=O)Nc4ccccc4)ccc3C)n2c1C", "Recorded result": "1000 to 10000 nM"}
{"Molecule": "Cc1ccc(C(=O)NC2CC2)cc1Nc1nncc2cc(C(=O)NC3CC3)c(C)n12", "Recorded result": "< 1000 nM"}
{"Molecule": "CCOC(=O)c1cc2cnnc(Nc3cc(NC(C)=O)ccc3C)n2c1C", "Recorded result": "> 10000 nM"}

Query: State the recorded IC50 for this entry: Cc1ccc(C(=O)NC2CC2)cc1Nc1nncc2cc(C(=O)NCc3ccccc3)c(C)n12
Reply: < 1000 nM

Query: Another compound to check: CNC(=O)c1cc2cnnc(Nc3cc(C(=O)NC4CC4)ccc3C)n2c1C
Reply: < 1000 nM

Query: Follow-up entry: CCOC(=O)c1cc2cnnc(Nc3ccccc3C)n2c1C
Reply: 1000 to 10000 nM

Query: Cool, now CCOC(=O)Nc1ccc(C)c(Nc2nncc3cc(C(=O)OCC)c(C)n23)c1
Reply: < 1000 nM

Query: What do we get for CCOC(=O)c1cc2cnnc(Nc3cc(N)ccc3C)n2c1C ?
Reply: > 10000 nM

Query: How about this compound: CCNC(=O)c1ccc(C)c(Nc2nncc3cc(C(=O)OCC)c(C)n23)c1
Reply: 1000 to 10000 nM

Query: For CCOC(=O)c1cc2cnnc(Nc3cc(C(=O)NCc4ccccc4)ccc3C)n2c1C then?
Reply: 1000 to 10000 nM

* * *

Molecular target: human recombinant Jnk2 (Homo sapiens)
Sequence (P45984 whole entry): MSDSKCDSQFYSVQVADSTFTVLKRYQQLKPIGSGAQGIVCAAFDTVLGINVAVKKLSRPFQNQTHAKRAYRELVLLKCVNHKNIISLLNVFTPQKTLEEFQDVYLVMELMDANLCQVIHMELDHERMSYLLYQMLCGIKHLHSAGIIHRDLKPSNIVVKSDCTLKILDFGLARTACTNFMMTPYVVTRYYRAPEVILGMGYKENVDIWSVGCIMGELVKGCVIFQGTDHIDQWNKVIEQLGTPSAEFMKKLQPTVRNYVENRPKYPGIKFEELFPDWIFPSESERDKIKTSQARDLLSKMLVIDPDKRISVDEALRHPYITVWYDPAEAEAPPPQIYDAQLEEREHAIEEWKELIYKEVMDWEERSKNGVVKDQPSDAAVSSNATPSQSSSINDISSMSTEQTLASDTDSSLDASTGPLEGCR
Test: JNK enzymatic assay (33P incorporation into peptide)
Details: JNK2 kinase IC50 class, Table 1
pIC50: −log10 of the molar value.
Value kind: pIC50

{"Compound": "CCOC(=O)c1cc2cnnc(Nc3cc(C(=O)NC(C)C)ccc3C)n2c1C [Compound 21]", "pIC50": "< 5.00"}
{"Compound": "CCOC(=O)c1cc2cnnc(Nc3cccc(C(=O)NC4CC4)c3)n2c1C [Compound 11]", "pIC50": "5.00 to 6.00"}
{"Compound": "CCOC(=O)c1cc2cnnc(Nc3cc(C(=O)NC4CC4)ccc3C)n2c1C [Compound 3]", "pIC50": "> 6.00"}
{"Compound": "CCOC(=O)c1cc2cnnc(Nc3ccccc3)n2c1C [Compound 15]", "pIC50": "5.00 to 6.00"}
{"Compound": "CCOC(=O)c1cc2cnnc(Nc3cc(C(N)=O)ccc3C)n2c1C [Compound 23]", "pIC50": "< 5.00"}

Query: For the compound CCOC(=O)c1cc2cnnc(Nc3cc(C(=O)O)ccc3C)n2c1C [Compound 18] , what pIC50 is on record?
Reply: 5.00 to 6.00

Query: Consider next the compound CCOC(=O)c1cc2cnnc(Nc3cc(C(=O)Nc4ccccc4)ccc3C)n2c1C [Compound 12] in the same way.
Reply: 5.00 to 6.00

Query: Same for CCOC(=O)c1cc2cnnc(Nc3cc(C(=O)NCc4ccccc4)ccc3C)n2c1C [Compound 20]
Reply: 5.00 to 6.00

Query: Do the same for CCOC(=O)c1cc2cnnc(Nc3cc(N)ccc3C)n2c1C [Compound 24] please
Reply: < 5.00
